system-tested: Chymotrypsin-like elastase family member 1 (Homo sapiens, UniProt Q9UNI1)
Sequence (Q9UNI1 whole entry): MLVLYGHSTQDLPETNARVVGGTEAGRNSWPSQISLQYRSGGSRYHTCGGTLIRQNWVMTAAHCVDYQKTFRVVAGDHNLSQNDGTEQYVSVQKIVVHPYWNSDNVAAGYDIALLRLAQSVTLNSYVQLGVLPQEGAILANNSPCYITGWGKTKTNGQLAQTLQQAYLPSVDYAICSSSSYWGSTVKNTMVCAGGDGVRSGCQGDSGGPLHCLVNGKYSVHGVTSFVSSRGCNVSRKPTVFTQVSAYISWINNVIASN
quantity-name: IC50

# molecule, quantity-name, recorded-result
records = [
    ("CC[C@@H]1C[C@]1(NC(=O)[C@@H]1C[C@@H]2CN1C(=O)[C@H](C(C)(C)C)NC(=O)OCC(C)(C)CCCCc1cccc3c1CN(C3)C(=O)O2)C(=O)NS(=O)(=O)C1CC1", "IC50", "> 10 µM"),
    ("CCC[C@H](NC(=O)[C@@H]1[C@H]2CCC[C@H]2CN1C(=O)[C@@H](NC(=O)[C@@H](NC(=O)c1cnccn1)C1CCCCC1)C(C)(C)C)C(=O)C(=O)NC1CC1", "IC50", "0.03 µM"),
    ("CC(C)(C)NC(=O)N[C@H](C(=O)N1C[C@H]2[C@@H]([C@H]1C(=O)NC(CC1CCC1)C(=O)C(N)=O)C2(C)C)C(C)(C)C (stereo partly drawn)", "IC50", "> 10 µM"),
]

* * *

Tested on: Hepatitis C virus
test: Antiviral activity against Hepatitis C virus containing NS3/4a ps30 sequence by transient cell-base protease activity
Type: functional, organism-based, Hepacivirus hominis

# molecule-smiles, EC50 (nM)
records = [
    ("CC[C@@H]1C[C@]1(NC(=O)[C@@H]1C[C@@H]2CN1C(=O)[C@H](C(C)(C)C)NC(=O)OCC(C)(C)CCCCc1cccc3c1CN(C3)C(=O)O2)C(=O)NS(=O)(=O)C1CC1", 27),
]

* * *

test: AUC (0-24 hrs) in dog at 2 mg/kg, iv by LC/MS/MS analysis
Type: ADME, organism-based, Canis lupus familiaris
Design: time < 24 hr, dose 2 mg/kg, route intravenous
condition-context: plasma
quantity-name: AUC(0-t) at 24 h (µM·h)

# compound, recorded-result
records = [
    ("CC[C@@H]1C[C@]1(NC(=O)[C@@H]1C[C@@H]2CN1C(=O)[C@H](C(C)(C)C)NC(=O)OCC(C)(C)CCCCc1cccc3c1CN(C3)C(=O)O2)C(=O)NS(=O)(=O)C1CC1 [VANIPREVIR]", 4.1),
]

* * *

Test system: Hepatitis C virus genotype 1b
test: Antiviral activity against Hepatitis C virus genotype 1b containing NS3/con1 protease mutant by TaqMan-based assay
condition-context: subtype 1b
pEC50: −log10 of the molar value.
quantity-name: pEC50

# compound, recorded-result
data = [
    ("CC[C@@H]1C[C@]1(NC(=O)[C@@H]1C[C@@H]2CN1C(=O)[C@H](C(C)(C)C)NC(=O)OCC(C)(C)CCCCc1cccc3c1CN(C3)C(=O)O2)C(=O)NS(=O)(=O)C1CC1 [VANIPREVIR]", 8.80),
]

* * *

Here's what we have: IC50 numbers for Procathepsin L (Homo sapiens, UniProt P07711).
quantity-name: IC50 (µM)

# molecule-smiles, comparison-symbol, recorded-result
rows = [
    ("CC[C@@H]1C[C@]1(NC(=O)[C@@H]1C[C@@H]2CN1C(=O)[C@H](C(C)(C)C)NC(=O)OCC(C)(C)CCCCc1cccc3c1CN(C3)C(=O)O2)C(=O)NS(=O)(=O)C1CC1", ">", 10),
    ("CCC[C@H](NC(=O)[C@@H]1[C@H]2CCC[C@H]2CN1C(=O)[C@@H](NC(=O)[C@@H](NC(=O)c1cnccn1)C1CCCCC1)C(C)(C)C)C(=O)C(=O)NC1CC1", "=", 3.5),
]

* * *

System: Hepatitis C virus
test: Antiviral activity against Hepatitis C virus containing NS3/F43S protease mutant activity by TaqMan-based assay
Format: functional, organism-based, Hepacivirus hominis

# molecule-smiles, EC50 [nM]
data = [
    ("CC[C@@H]1C[C@]1(NC(=O)[C@@H]1C[C@@H]2CN1C(=O)[C@H](C(C)(C)C)NC(=O)OCC(C)(C)CCCCc1cccc3c1CN(C3)C(=O)O2)C(=O)NS(=O)(=O)C1CC1", 7.8),
]

* * *

test: AUC (0-24 hrs) in rhesus monkey at 2 mg/kg, iv by LC/MS/MS analysis
Type: ADME, organism-based, Macaca mulatta
Parameters: time < 24 hr, dose 2 mg/kg, route intravenous
condition-context: plasma

# molecule-smiles, quantity-unit, AUC(0-t) at 24 h
measured = [
    ("CC[C@@H]1C[C@]1(NC(=O)[C@@H]1C[C@@H]2CN1C(=O)[C@H](C(C)(C)C)NC(=O)OCC(C)(C)CCCCc1cccc3c1CN(C3)C(=O)O2)C(=O)NS(=O)(=O)C1CC1", "µM·h", 2.5),
]

* * *

test: Volume of distribution in dog at 2 mg/kg, iv by LC/MS/MS analysis
Assay type: ADME, organism-based, Canis lupus familiaris
Parameters: dose 2 mg/kg, route intravenous
condition-context: in vivo

# molecule-smiles, quantity-unit, Vd
rows = [
    ("CC[C@@H]1C[C@]1(NC(=O)[C@@H]1C[C@@H]2CN1C(=O)[C@H](C(C)(C)C)NC(=O)OCC(C)(C)CCCCc1cccc3c1CN(C3)C(=O)O2)C(=O)NS(=O)(=O)C1CC1", "L/kg", 0.3),
]

* * *

test: Cmax in rhesus monkey at 5 mg/kg, po by LC/MS/MS analysis
Type: ADME, organism-based, Macaca mulatta
Design: dose 5 mg/kg, route oral
condition-context: in vivo
quantity-name: Cmax

# molecule, recorded-result
measured = [
    ("CC[C@@H]1C[C@]1(NC(=O)[C@@H]1C[C@@H]2CN1C(=O)[C@H](C(C)(C)C)NC(=O)OCC(C)(C)CCCCc1cccc3c1CN(C3)C(=O)O2)C(=O)NS(=O)(=O)C1CC1 [VANIPREVIR]", "0.01 µM"),
]

* * *

system-tested: Neutrophil elastase (Homo sapiens)
Sequence (P08246 whole entry): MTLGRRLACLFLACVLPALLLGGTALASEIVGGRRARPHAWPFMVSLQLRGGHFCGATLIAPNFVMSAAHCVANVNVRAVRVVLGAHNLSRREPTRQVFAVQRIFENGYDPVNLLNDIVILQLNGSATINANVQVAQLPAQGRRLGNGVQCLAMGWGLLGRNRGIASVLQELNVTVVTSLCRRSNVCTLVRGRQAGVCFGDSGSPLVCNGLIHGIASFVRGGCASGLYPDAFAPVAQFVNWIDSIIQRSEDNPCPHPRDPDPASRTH
test: Inhibition of human Neutrophil elastase 2
pIC50: −log10 of the molar value.
quantity-name: pIC50

# compound, system-tested, recorded-result
measured = [
    ("CCC[C@H](NC(=O)[C@@H]1[C@H]2CCC[C@H]2CN1C(=O)[C@@H](NC(=O)[C@@H](NC(=O)c1cnccn1)C1CCCCC1)C(C)(C)C)C(=O)C(=O)NC1CC1", "Neutrophil elastase (Homo sapiens)", 5.10),
    ("CC[C@@H]1C[C@]1(NC(=O)[C@@H]1C[C@@H]2CN1C(=O)[C@H](C(C)(C)C)NC(=O)OCC(C)(C)CCCCc1cccc3c1CN(C3)C(=O)O2)C(=O)NS(=O)(=O)C1CC1", "Neutrophil elastase (Homo sapiens)", "< 5.00"),
    ("CC(C)(C)NC(=O)N[C@H](C(=O)N1C[C@H]2[C@@H]([C@H]1C(=O)NC(CC1CCC1)C(=O)C(N)=O)C2(C)C)C(C)(C)C (stereo partly drawn)", "Neutrophil elastase (Homo sapiens)", "< 5.00"),
]

* * *

System: Hepatitis C virus
test: Antiviral activity against Hepatitis C virus containing NS3/4a ps32 sequence by transient cell-base protease activity
Format: functional, organism-based, Hepacivirus hominis
pEC50: −log10 of the molar value.

# molecule, pEC50
data = [
    ("CC[C@@H]1C[C@]1(NC(=O)[C@@H]1C[C@@H]2CN1C(=O)[C@H](C(C)(C)C)NC(=O)OCC(C)(C)CCCCc1cccc3c1CN(C3)C(=O)O2)C(=O)NS(=O)(=O)C1CC1 [VANIPREVIR]", 8.42),
]

* * *

test: Volume of distribution in rhesus monkey at 2 mg/kg, iv by LC/MS/MS analysis
Format: ADME, organism-based, Macaca mulatta
Parameters: dose 2 mg/kg, route intravenous
condition-context: in vivo

# molecule-smiles, Vd (L/kg)
records = [
    ("CC[C@@H]1C[C@]1(NC(=O)[C@@H]1C[C@@H]2CN1C(=O)[C@H](C(C)(C)C)NC(=O)OCC(C)(C)CCCCc1cccc3c1CN(C3)C(=O)O2)C(=O)NS(=O)(=O)C1CC1", 0.4),
]

* * *

Test system: Hepatitis C virus
test: Antiviral activity against Hepatitis C virus containing NS3/R155K protease mutant activity by TaqMan-based assay
Type: functional, organism-based, Hepacivirus hominis
pEC50: −log10 of the molar value.
quantity-name: pEC50

# molecule-smiles, recorded-result
records = [
    ("CC[C@@H]1C[C@]1(NC(=O)[C@@H]1C[C@@H]2CN1C(=O)[C@H](C(C)(C)C)NC(=O)OCC(C)(C)CCCCc1cccc3c1CN(C3)C(=O)O2)C(=O)NS(=O)(=O)C1CC1", 6.46),
]
